Molecular target: IRAK4 enzyme (Homo sapiens (Human))
Sequence (Q9NWZ3 whole entry): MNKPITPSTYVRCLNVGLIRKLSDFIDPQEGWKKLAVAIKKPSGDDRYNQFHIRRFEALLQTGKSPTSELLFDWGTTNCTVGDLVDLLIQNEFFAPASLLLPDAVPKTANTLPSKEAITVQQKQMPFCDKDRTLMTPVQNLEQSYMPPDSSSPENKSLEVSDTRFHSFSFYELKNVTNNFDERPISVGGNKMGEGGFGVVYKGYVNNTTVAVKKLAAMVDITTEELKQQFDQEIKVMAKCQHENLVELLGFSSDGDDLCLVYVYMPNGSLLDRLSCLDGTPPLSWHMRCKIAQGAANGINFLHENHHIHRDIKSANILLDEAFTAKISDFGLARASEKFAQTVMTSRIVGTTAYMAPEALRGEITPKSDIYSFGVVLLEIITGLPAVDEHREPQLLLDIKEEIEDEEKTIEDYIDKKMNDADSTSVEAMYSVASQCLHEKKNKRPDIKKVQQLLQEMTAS
Assay: IRAK4 Biochemical Assay (TR-FRET, STK1 KinEASE)
METRIC: IC50 (nM)

{"SMILES ENTRY": "CNc1cc(-c2ccc3cc(C#N)cnn23)ncc1-c1nnc(N2CC[C@H](NC(C)=O)C(F)(F)C2)s1", "TARGET ENTITY": "IRAK4 enzyme (Homo sapiens (Human))", "METRIC": "IC50", "UNIT SPEC": "nM", "READOUT VALUE": 0.83}
{"SMILES ENTRY": "CC(C)Nc1cc(-c2ccc3cc(C#N)cnn23)ncc1-c1nnc(N2CC3CCC(C3)C2)s1", "TARGET ENTITY": "IRAK4 enzyme (Homo sapiens (Human))", "METRIC": "IC50", "UNIT SPEC": "nM", "READOUT VALUE": 1.78}
{"SMILES ENTRY": "CC(=O)N[C@@H]1CC[C@H](c2nnc(-c3cnc(-c4ccc5cc(C#N)cnn45)cc3NC(C)C)s2)C1", "TARGET ENTITY": "IRAK4 enzyme (Homo sapiens (Human))", "METRIC": "IC50", "UNIT SPEC": "nM", "READOUT VALUE": 0.93}
{"SMILES ENTRY": "CC(=O)N[C@H]1CC[C@H](c2nnc(-c3cnc(-c4ccc5cc(C#N)cnn45)cc3NC(C)C)s2)C1", "TARGET ENTITY": "IRAK4 enzyme (Homo sapiens (Human))", "METRIC": "IC50", "UNIT SPEC": "nM", "READOUT VALUE": 0.8}
{"SMILES ENTRY": "CC(C)Nc1cc(-c2ccc3cc(C#N)cnn23)ncc1-c1nnc(N2CC3(CCO3)C2)s1", "TARGET ENTITY": "IRAK4 enzyme (Homo sapiens (Human))", "METRIC": "IC50", "UNIT SPEC": "nM", "READOUT VALUE": 1.52}
